Molecular target: 5-HT1D -like receptor (Oryctolagus cuniculus, UniProt P49144)
Construct: Ring segments of the vein (4-5 mm in length) were cut and the endothelium gently removed
Sequence (P49144 whole entry): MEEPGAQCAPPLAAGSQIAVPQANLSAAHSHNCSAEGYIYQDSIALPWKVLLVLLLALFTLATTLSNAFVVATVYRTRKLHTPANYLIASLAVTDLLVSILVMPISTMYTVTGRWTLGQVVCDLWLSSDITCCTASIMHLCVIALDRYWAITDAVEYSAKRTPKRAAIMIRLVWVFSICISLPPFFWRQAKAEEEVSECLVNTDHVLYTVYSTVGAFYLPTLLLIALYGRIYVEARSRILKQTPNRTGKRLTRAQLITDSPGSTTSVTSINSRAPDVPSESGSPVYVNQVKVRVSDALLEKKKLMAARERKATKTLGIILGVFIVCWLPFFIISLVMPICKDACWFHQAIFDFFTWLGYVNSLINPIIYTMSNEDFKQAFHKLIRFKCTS
Test: 5-HT1D-like receptor agonist activity: contraction of the rabbit isolated saphenous vein
Settings: rabbit isolated saphenous vein rings, endothelium removed, 37° C., pH 7.4; prazosin, idazoxan and indomethacin (1 μM each) present; read-out: EC50 (concentration of the compound which causes 50% of the maximum contraction effected by it)
# reported EC50; entries follow
measurement.kind: EC50 (µM)

{"line.notation": "Cc1cc(C(C)(C)C)cc(C)c1Cc1ncc[nH]1", "recorded.number": 0.13}
{"line.notation": "Cc1cc(Br)cc(C)c1Cc1ncc[nH]1", "recorded.number": 9.3}
